Data provenance: paper PMC6522510

# reported CHRF288-11 %inh; entries follow
# Tested on: CHRF288-11
# Set-up: species or system AML cell lines (8); Primary HTS, single concentration about 10 uM, Cell Titer Glo viability; log10 luminescence, per cent inhibition relative to cycloheximide control
# test-settings: 72 h, relative to cycloheximide control, log10 luminescence, inhibitor, CHRF288-11 %inh, 10 µM
Counter-ions that a name gives are not always drawn. Square brackets hold non-standard residues; d marks the D form. Peptide text beside a SMILES is read from it. * marks the point of attachment. Sta = CC(C)C[C@H](N)[C@@H](O)CC(=O)O; Isovaleryl = CC(C)CC(=O)*
Use % as the unit, but write only the number.

CN1CCC(C(=O)Nc2n[nH]c3nc(-c4ccc(O)cc4)c(Br)cc23)CC1 [SJ000573086-1, RW100084-040A1 | AN100368-077A1] :: 69.8
CCOc1cc(CC(=O)N[C@@H](CC(C)C)c2ccccc2N2CCCCC2)ccc1C(=O)O [SJ000287528-3, REPAGLINIDE] :: 0.4521
CC(=O)/N=c1/sc(S(N)(=O)=O)nn1C [SJ000285971-4, METHAZOLAMIDE] :: -2.381
C[C@H]1O[C@@H](O[C@H]2[C@@H](O)C[C@H](O[C@H]3[C@@H](O)C[C@H](O[C@H]4CC[C@@]5(C)[C@H](CC[C@@H]6[C@@H]5CC[C@]5(C)[C@@H](C7=CC(=O)OC7)CC[C@]65O)C4)O[C@@H]3C)O[C@@H]2C)C[C@H](O)[C@@H]1O :: 102.9
COCCOC(=O)C1=C(C)NC(C)=C(C(=O)OC(C)C)C1c1cccc([N+](=O)[O-])c1 (stereo not drawn) [SJ000285435-10, NIMODIPINE] :: 10.94
C[C@H](CS)C(=O)N1CCC[C@H]1C(=O)O [SJ000286908-11, CAPTOPRIL] :: -3.474
CC(C)(C)C(=O)Oc1ccc(S(=O)(=O)Nc2ccccc2C(=O)NCC(=O)O)cc1 [SJ000556638-3, SIVELESTAT SODIUM SALT] :: -1.426
CC(C)CC(=O)N[C@H](C(=O)N[C@H](C(=O)N[C@@H](CC(C)C)[C@@H](O)CC(=O)N[C@@H](C)C(=O)N[C@@H](CC(C)C)[C@@H](O)CC(=O)O)C(C)C)C(C)C [SJ000287258-4, PEPSTATIN A] (Isovaleryl-VV[Sta]A[Sta]-OH) :: -1.709

# input Give the reported CHRF288-11 %inh for this molecule. NCCCC[C@H](N[C@@H](CCc1ccccc1)C(=O)O)C(=O)N1CCC[C@H]1C(=O)O
# output -6.515

# input Give the reported CHRF288-11 %inh for this molecule. CC(=O)N(O)CCCCCNC(=O)CCC(=O)N(O)CCCCCNC(=O)CCC(=O)N(O)CCCCCN [SJ000285725-4, DEFEROXAMINE MESYLATE]
# output 11.08

# input Give the reported CHRF288-11 %inh for this molecule. Cc1ccc(C)c(OCCCC(C)(C)C(=O)O)c1 [SJ000285775-5, GEMFIBROZIL]
# output 15.66

# input Give the reported CHRF288-11 %inh for this molecule. C[C@]12C=CC(=O)C=C1CC[C@@H]1[C@@H]2C(=O)C[C@@]2(C)[C@H]1CC[C@]2(O)C(=O)CO
# output 4.454

----------
# reported M07e %inh; entries follow
# Tested on: M07e
# Set-up: species or system AML cell lines (8); Primary HTS, single concentration about 10 uM, Cell Titer Glo viability; log10 luminescence, per cent inhibition relative to cycloheximide control
# test-settings: 72 h, relative to cycloheximide control, log10 luminescence; inhibitor
Use % as the unit, but write only the number.

Recorded results for 10 compounds are shown here.
CCCCCCCCCCCCCCCCCCCCCCO :: 3.056
Clc1ccc2c(N3CCN(CCCN4CCN(c5ccnc6cc(Cl)ccc56)CC4)CC3)ccnc2c1 [SJ000518980-1, PIPERAQUINE PHOSPHATE] :: -0.3802
CC1=C(C(=O)Nc2cc(Cl)c3[nH]ncc3c2)C(c2ccc(C(F)(F)F)cc2)CC(=O)N1 (centres unmarked) :: 13.65
Cn1c(=O)c(Oc2ccc(F)cc2F)cc2cnc(NC(C)(C)CO)nc21 :: 0.06396
CCN1CCC(CC(=O)Nc2n[nH]c3nnc(-c4cccc(F)c4F)cc23)CC1 :: 13.75
O=C(O[C@H]1CN[C@H](C#Cc2cc3ncnc(Nc4ccc(Cc5ccccc5)cc4)c3s2)C1)N1CCOCC1 :: 4.781
Cc1[nH]nc2c1N=C(c1ccccc1Cl)c1cc([N+](=O)[O-])ccc1N2 :: 57.3
C[C@]12CCC(=O)C=C1C=C[C@@H]1[C@@H]2CC[C@@]2(C)[C@H]1CC[C@@]21CCC(=O)O1 :: 2.621
COc1ccc2cc(-c3c(-c4ccncc4)nc(-c4ccc([S+](C)[O-])cc4C)n3C)ccc2c1 (centres unmarked) :: 7.477
C[C@@H](Cn1ncnn1)Nc1ncc2cc(Oc3ccc(F)cc3F)c(=O)n(C)c2n1 :: 0.2176

# input Give the reported M07e %inh for this compound. CN1CCC(C(=O)Nc2n[nH]c3nnc(-c4ccccc4)cc23)CC1
# output 2.861

# input Give the reported M07e %inh for this compound. Fc1ccc(-c2cc(-c3c[nH]nc3-c3ccccn3)ccn2)cc1
# output -1.13

# input Give the reported M07e %inh for this compound. Cc1nnc(-c2ccc(C)c(-c3ccc(C(=O)NCc4ccc(Cl)cc4)cc3)c2)o1
# output 6.199

# input Give the reported M07e %inh for this compound. C[C@@H]1C[C@H]2[C@@H]3C[C@H](F)C4=CC(=O)C=C[C@]4(C)[C@@]3(F)[C@@H](O)C[C@]2(C)[C@@]1(O)C(=O)CO
# output -0.252

----------
# reported ML-2 %inh; entries follow
# System: ML-2
# Set-up: species or system AML cell lines (8); Primary HTS, single concentration about 10 uM, Cell Titer Glo viability; log10 luminescence, per cent inhibition relative to cycloheximide control
# test-settings: 72 h, relative to cycloheximide control, log10 luminescence; inhibitor
Use % as the unit, but write only the number.

Recorded results for 5 compounds are shown here.
Cc1cc(O)cc(C)c1/C=C/c1cncc(C(=O)OC(C)(C)C)c1 :: -0.1273
CCC1(CC)C(=O)NC(=O)N(C)C1=O :: -0.4535
CO[C@H]1O[C@@H]2O[C@@]3(C)CC[C@H]4[C@H](C)CC[C@@H]([C@H]1C)[C@@]24OO3 :: 5.533
CC(=O)NCc1cccc(C#Cc2cncnc2Nc2ccc(OCc3cccc(F)c3)c(Cl)c2)c1 :: 1.051
O=c1c(-c2ccc(O)cc2)coc2cc(O)ccc12 :: -1.236

# input Give the reported ML-2 %inh for this compound. c1ccc(-c2n[nH]cc2-c2ccnc(-c3ccc(OCCN4CCOCC4)cc3)c2)nc1
# output -0.6736

# input Give the reported ML-2 %inh for this compound. CN=C1NC(=O)/C(=C/c2ccc3ncccc3c2)S1
# output 4.634

# input Give the reported ML-2 %inh for this compound. O=C1NC(=NCCc2ccccc2Cl)S/C1=C\c1ccc2ncccc2c1
# output 3.879

----------
# Tested on: M07e
# assay-info: Secondary dose-response HTS, Cell Titer Glo
# Type: cell-based, human
# test-settings: Homo sapiens, M-07e; secondary high-throughput screen; M07e; read-out: average effective concentration, M07e
measured-metric: EC50

Recorded results for 4 compounds are shown here.
CC1(COc2ccc3c(c2)ncn3-c2ccc3cccc(N4CCC(N)CC4)c3n2)COC1 :: > 10000 nM
N#CCNC(=O)c1ccc(-c2ccnc(Nc3ccc(N4CCOCC4)cc3)n2)cc1 :: 270 nM
COc1cc(Nc2c(C#N)cnc3cc(OCCCN4CCN(C)CC4)c(OC)cc23)c(Cl)cc1Cl :: 4800 nM
CC(C)C[C@H](NC(=O)[C@H](CCc1ccccc1)NC(=O)CN1CCOCC1)C(=O)N[C@@H](Cc1ccccc1)C(=O)N[C@@H](CC(C)C)C(=O)[C@@]1(C)CO1 [Carfilzomib, reference compound] :: 1.4 nM

# input Give the reported EC50 for this compound. O=C(/C=C/c1ccc(CN(CCO)CCc2c[nH]c3ccccc23)cc1)NO
# output 1 nM

# input Give the reported EC50 for this compound. CCn1c(C(=O)N(C2CC2)C2CC2)cc2c3c(ncn3C)c(Nc3cc(C)n(C)n3)nc21
# output 8700 nM

# input Give the reported EC50 for this compound. O=C(/C=C/c1cccnc1)NCCCCC1CCN(C(=O)c2ccccc2)CC1
# output 1 nM

----------
# reported CMS %inh; entries follow
# Tested on: CMS
# Design: species or system AML cell lines (8); Primary HTS, single concentration about 10 uM, Cell Titer Glo viability; log10 luminescence, per cent inhibition relative to cycloheximide control
# test-settings: 72 h, relative to cycloheximide control, log10 luminescence, inhibitor, CMS %inh, 10 µM
Where a name gives a salt, the structure may show the parent alone.
Use % as the unit, but write only the number.

C[C@@H]1CN(c2c(F)c(N)c3c(=O)c(C(=O)O)cn(C4CC4)c3c2F)C[C@H](C)N1 :: -1.257

# input Give the reported CMS %inh for this molecule. O=[N+]([O-])c1ccc(Oc2ccc(Br)cc2)c(C(O)P(=O)(O)O)c1 (single isomer, unassigned)
# output -0.822

# input Give the reported CMS %inh for this molecule. Cc1ccccc1N1CCN(CCc2nnc3n2CCCC3)CC1 [SJ000565164-2, DAPIPRAZOLE HYDROCHLORIDE]
# output -0.5071

# input Give the reported CMS %inh for this molecule. CNC(=O)[C@@H](NC(=O)[C@H](CC(C)C)[C@H](O)C(=O)NO)C(C)(C)C
# output -1.756
